# Measurement Notes: Thermodynamic solubility by UV-vis in saturated solutions
# Assay type: physicochemical
# Stated Conditions: 20 mM HEPES buffer, 25 °C, aqueous buffer, thermodynamic from solid; pH 7.4 (20 mM HEPES), aqueous solution, T = 298 K, I = 0.10 M (KCl); read-out: Thermodynamic solubility S 7.4

Molecule: C(=N\N=C1/NCCc2ccccc2-c2c1[nH]c1ccccc21)/c1ccccn1 [HL^1]
solubility thermodynamic: 8 µM

----------
# Measurement Notes: Proton dissociation constants of ligands by UV-vis titrations
# Format: physicochemical
# Stated Conditions: DMSO:water 30:70 (v/v) mixture, 30:70% (v/v) DMSO/H2O, T = 298 K, I = 0.10 M (KCl); read-out: pKa1 H2(HL)^2+

Compound: C(=N\N=C1/NCCc2ccccc2-c2c1[nH]c1ccccc21)/c1ccccn1 [HL^1]
pKa: 2.07

----------
# Test system: MCF-7 breast cancer cells
# Measurement Notes: In vitro cytotoxicity MTT assay
# Assay type: cell-based, human
# Stated Conditions: 72 h incubation, MTT

Compound: [Cl][Cu][Cl] [CuCl2, reference compound]
IC50: 32 µM

----------
# Test system: Colo205 human colon adenocarcinoma cell line
# Measurement Notes: In vitro cytotoxicity MTT assay
# Type: cell-based
# Stated Conditions: Homo sapiens, COLO 205; 72 h incubation, MTT
pIC50: −log10 of the molar value.

Compound: COc1cccc2c1C(=O)c1c(O)c3c(c(O)c1C2=O)C[C@@](O)(C(=O)CO)C[C@@H]3O[C@H]1C[C@H](N)[C@H](O)[C@H](C)O1 [Doxorubicin, doxorubicin, reference compound]
Target Or System: Colo205 human colon adenocarcinoma cell line
pIC50: 6.09
//
Compound: C(=N\N=C1/NCCc2ccccc2-c2c1[nH]c1ccccc21)/c1ccccn1
Target Or System: Colo205 human colon adenocarcinoma cell line
pIC50: 4.52
